Experiment: Influencing factor stability (open flasks, light, high temperature, high humidity, 30 days)
Conditions: 40° C., 30 days, open flask

{"molecule": "CCO[C@H]1C[C@H]2CC[C@@](c3ccc(C(=O)O)cc3)(C1)N2Cc1c(OC)cc(C)c2[nH]ccc12.O=C(O)/C=C/C(=O)O [crystal form I of the fumarate]", "Purity % [%]": 99.3}
{"molecule": "CCO[C@H]1C[C@H]2CC[C@@](c3ccc(C(=O)O)cc3)(C1)N2Cc1c(OC)cc(C)c2[nH]ccc12.Cl [crystal form III of the hydrochloride]", "Purity % [%]": 99.0}
{"molecule": "CCO[C@H]1C[C@H]2CC[C@@](c3ccc(C(=O)O)cc3)(C1)N2Cc1c(OC)cc(C)c2[nH]ccc12.Cl [crystal form II of the hydrochloride]", "Purity % [%]": 98.6}
{"molecule": "CCO[C@H]1C[C@H]2CC[C@@](c3ccc(C(=O)O)cc3)(C1)N2Cc1c(OC)cc(C)c2[nH]ccc12.Cc1ccc(S(=O)(=O)O)cc1 [crystal form I of the p-toluenesulfonate]", "Purity % [%]": 99.5}
